Reference source for all entries: the NIST ThermoML archive (doi:10.1016/j.jct.2011.11.025)

# Method Notes: activity coefficient (dimensionless); of the first substance listed, at infinite dilution; xn = mol fraction of the nth substance listed
# Condition Notes: 338.15 K; Liquid; Chromatography; x1 = 0
Property Measured: activity coefficient

Field: example entries. Status: answers known.
Compound: CC(C)CO [2-methyl-1-propanol] + CCCCCCn1cc[n+](C)c1.N#C[B-](C#N)(C#N)C#N
Result: 1.2

Compound: C=CCCCCC [1-heptene] + CCCCCCn1cc[n+](C)c1.N#C[B-](C#N)(C#N)C#N
Result: 7.79

Compound: C1CCOC1 [tetrahydrofuran] + CCCCCCn1cc[n+](C)c1.N#C[B-](C#N)(C#N)C#N
Result: 0.485

Compound: CCOC(C)=O [ethyl acetate] + CCCCCCn1cc[n+](C)c1.N#C[B-](C#N)(C#N)C#N
Result: 0.701

Compound: C=CCCCCCC [oct-1-ene] + CCCCCCn1cc[n+](C)c1.N#C[B-](C#N)(C#N)C#N
Result: 10.7

Respectfully, I request activity coefficient for each entry included below.
1. Cc1ccccc1C [1,2-dimethylbenzene] + CCCCCCn1cc[n+](C)c1.N#C[B-](C#N)(C#N)C#N
2. CC(C)(C)O [2-methylpropan-2-ol] + CCCCCCn1cc[n+](C)c1.N#C[B-](C#N)(C#N)C#N
3. c1ccsc1 [thiophene] + CCCCCCn1cc[n+](C)c1.N#C[B-](C#N)(C#N)C#N

1: 1.24; 2: 1.04; 3: 0.657
